# Tested on: NCI-H226
# method summary: NCI tumour cell line growth inhibition, 48 h
Activity calls are given as the source filed them. Rule as the data show it: active = GI50 up to about 1.1 µM and inactive = higher.
Outcome field: choose from t for active, f for inactive

Problem: Fill in: this test's call for COc1cc([C@@H]2c3cc4c(cc3[C@@H](NC(=O)c3cccc(N)c3)C3COC(=O)[C@@H]32)OCO4)cc(OC)c1O (some centres not stated) is ___
Result: t

Problem: Fill in: this test's call for `Cc1c(-c2ccccc2)c(C#N)c2nnn(-c3ccccc3)c(=O)n12` is ___
Result: f

Problem: Fill in: this test's call for O=C1NC(=O)C(C(CC(=O)c2ccc(Cl)cc2)c2ccc(Cl)cc2)C(=O)N1 (configuration not stated) is ___
Result: f

Problem: Fill in: this test's call for `CCOC(=O)c1sc2nc(SC)nc3c2c1NC(=O)CN3c1ccc(F)cc1` is ___
Result: f

Problem: Fill in: this test's call for `CC(C)(C)OC(=O)NCC(=O)N(CCc1ccc(Cl)c(Cl)c1)CCN1CCCC1` is ___
Result: f

Problem: Fill in: this test's call for `Cn1nc(-c2ccc(S(=O)(=O)N/C(=N/c3ccc(Cl)cc3)NN)s2)cc1C(F)(F)F` is ___
Result: f

Problem: Fill in: this test's call for `COc1cccc(-c2cc(O)c3cccnc3n2)c1` is ___
Result: t

Problem: Fill in: this test's call for `Cc1ccc(-c2cc(-c3cc(-c4ccc(C)cc4C)[nH]n3)[nH]n2)c(C)c1` is ___
Result: f

Problem: Fill in: this test's call for O=C(Nc1ccccc1)N(C1=NCC(CI)S1)c1ccc(F)cc1F (configuration not stated) is ___
Result: f

Problem: Fill in: this test's call for `CC1=NN(C(=O)Cc2ccccc2)C(=O)/C1=C\C=C\c1ccccc1` is ___
Result: f

Problem: Fill in: this test's call for `Cc1sc2nc(-c3cccc([N+](=O)[O-])c3)c(/C=N/N=C(N)N)n2c1C` is ___
Result: f

Problem: Fill in: this test's call for `Clc1ccc(-c2nn3c(-c4ccncc4)nnc3s2)cc1` is ___
Result: f

Problem: Fill in: this test's call for `O=C(O)c1cc2cc(OCc3ccccc3)ccc2[nH]1` is ___
Result: f

Problem: Fill in: this test's call for `CCCCC#COS(=O)(=O)c1ccc(C)cc1` is ___
Result: f

Problem: Fill in: this test's call for `COc1cc([C@@]23OC[C@@H]4[C@@H](OC[C@@H]42)c2cc4c(cc23)OCO4)cc(OC)c1OC` is ___
Result: t

Problem: Fill in: this test's call for CCCCCC[C@H]1C(=O)O[C@H](C)[C@H](NC(=O)c2cccc(NC=O)c2OC)C(=O)O[C@@H](C)[C@@H]1OC(=O)C(C)CC.CCCCCC[C@H]1C(=O)O[C@H](C)[C@H](NC(=O)c2cccc(NC=O)c2OC)C(=O)O[C@@H](C)[C@@H]1OC(=O)CC(C)C (some centres not stated) is ___
Result: f

---

# Test system: CAKI-1
# method summary: NCI tumour cell line growth inhibition, 48 h
Active and inactive are the calls of the source. Cut-off read from the data, not from the text of the source: active = GI50 up to about 1.1 µM and inactive = higher.
# GI50 per entry

Examples from the recorded data:
compound=O=C(O)c1cc2cc(OCc3ccccc3)ccc2[nH]1 result_value="> 100 µM (inactive)"
compound=CCCCCCCCCCCCCCN result_value="> 100 µM (inactive)"
compound=COc1cc2c(c3c1c(=O)c1ccccc1n3C)C=CC1(CCCC1)O2 result_value="2.54 µM (inactive)"
compound=CC1=NC(C)(C)[N+]([O-])=C1 result_value="> 10 µM (inactive)"
compound="O=CC(O)C(O)C(O)C(O)COP(=O)(O)Cc1ccccc1 (stereo unspecified)" result_value="> 10 µM (inactive)"

Problem: Which GI50 value is on record for `Cc1ccc2c(c1)Nc1ccccc1P2(=O)O` ?
Result: > 100 µM (inactive)

Problem: Which GI50 value is on record for CCC(C)NC1=NCC(C)S1 (stereo unspecified) ?
Result: > 100 µM (inactive)

Problem: Which GI50 value is on record for `CC[N+](CC)(CC)/C(=N\S(=O)(=O)c1ccc(Cl)cc1)[N-]S(=O)(=O)c1cc(C)c(Cl)cc1S` ?
Result: > 100 µM (inactive)
